Reference for the values: patent US8859580B2

Each entry below carries its recorded IC50.
Target: 11β-HSD1 (Homo sapiens, UniProt P28845)
Construct: detecting cortisol generated from cortisterone by human liver microsomes; from tissue; host or cells: human liver microsomes
Sequence (P28845 whole entry): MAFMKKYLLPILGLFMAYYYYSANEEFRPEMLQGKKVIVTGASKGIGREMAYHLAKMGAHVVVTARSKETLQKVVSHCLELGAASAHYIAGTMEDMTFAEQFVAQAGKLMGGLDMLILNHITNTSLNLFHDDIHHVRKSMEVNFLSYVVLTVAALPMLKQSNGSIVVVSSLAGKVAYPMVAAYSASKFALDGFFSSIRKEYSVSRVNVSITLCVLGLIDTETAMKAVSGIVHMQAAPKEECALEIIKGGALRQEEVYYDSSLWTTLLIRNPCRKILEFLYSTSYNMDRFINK
Test: In vitro inhibition of 11β-HSD1, HTRF detection of cortisol generated from cortisone by human liver microsomes
Format: biochemical
Conditions: 11β-HSD IC50 (nM), 1 hour at 37° C., pH 6.0, NADPH 200 μM, cortisone 80 nM, inhibition relative to carbenoxolone signal
Experimental: Cortisol generated in the reaction is then detected with a competitive immunoassay, involving two HTRF conjugates: cortisol linked to XL665 and anti-cortisol antibody labeled with Europium cryptate. The incubation period for detection reaction was typically 2 hours. […] The ratio of the two emission signals is then calculated (Em665*10000/Em615). […] Percent inhibition of each compound was determined relative to the carbenoxolone signal and IC50 curves were generated.
Give the quantity in nM, number only.

Problem: # lookup: IC50 of CC1(C)[C@H]2Cc3ccccc3[C@]1(C)CCN2C(=O)c1ccc(C(O)(C(F)(F)F)C(F)(F)F)cc1
Solution: 1270
